- ASSAY_OVERVIEW: Peak plasma concentration in rats upon oral dose of 3 mg/kg
- Type: ADME, organism-based
- Set-up: dose 3 mg/kg, route oral
- TEST_CONTEXT: rat
QUANTITY: Cmax (ng/mL)

A. N[C@]1(C(=O)O)[C@H]2[C@@H](C[C@H]1OCc1ccc3ccccc3c1)[C@]2(F)C(=O)O
B. N[C@]1(C(=O)O)[C@H]2[C@@H](C[C@H]1OCc1ccc(Cl)c(Cl)c1)[C@]2(F)C(=O)O
INPUT: For A and B , which recorded Cmax is lower? I would appreciate it if you answered with the label of your choice.
OUTPUT: A
(A: 65.9 ng/mL, B: 214 ng/mL)

---

- ASSAY_OVERVIEW: Peak plasma concentration in rat plasma upon oral dose of 10 mg/kg
- Format: ADME, organism-based
- Set-up: dose 10 mg/kg, route oral
QUANTITY: Cmax (ng/mL)

{"ITEM_SMILES": "N[C@]1(C(=O)O)[C@H]2[C@@H](C[C@H]1OCc1ccc(Cl)c(Cl)c1)[C@]2(F)C(=O)O", "Cmax [ng/mL]": 492}
{"ITEM_SMILES": "N[C@]1(C(=O)O)[C@H]2[C@@H](C[C@H]1OCc1ccc3ccccc3c1)[C@]2(F)C(=O)O", "Cmax [ng/mL]": 252}

a. N[C@]1(C(=O)O)[C@H]2[C@@H](C[C@H]1OC(c1ccccc1)c1ccccc1)[C@]2(F)C(=O)O
b. N[C@]1(C(=O)O)[C@H]2[C@@H](C[C@H]1OCc1ccc(F)c(F)c1)[C@]2(F)C(=O)O
INPUT: Name the one with the greater Cmax value, either a or b as given. I would appreciate it if you answered with the label of your choice.
OUTPUT: b
(b: 213 ng/mL, a: 61.3 ng/mL)

---

As an illustration, consider measured Ki for compounds on Metabotropic glutamate receptor 3 (Rattus norvegicus, UniProt P31422).
Sequence (P31422 whole entry): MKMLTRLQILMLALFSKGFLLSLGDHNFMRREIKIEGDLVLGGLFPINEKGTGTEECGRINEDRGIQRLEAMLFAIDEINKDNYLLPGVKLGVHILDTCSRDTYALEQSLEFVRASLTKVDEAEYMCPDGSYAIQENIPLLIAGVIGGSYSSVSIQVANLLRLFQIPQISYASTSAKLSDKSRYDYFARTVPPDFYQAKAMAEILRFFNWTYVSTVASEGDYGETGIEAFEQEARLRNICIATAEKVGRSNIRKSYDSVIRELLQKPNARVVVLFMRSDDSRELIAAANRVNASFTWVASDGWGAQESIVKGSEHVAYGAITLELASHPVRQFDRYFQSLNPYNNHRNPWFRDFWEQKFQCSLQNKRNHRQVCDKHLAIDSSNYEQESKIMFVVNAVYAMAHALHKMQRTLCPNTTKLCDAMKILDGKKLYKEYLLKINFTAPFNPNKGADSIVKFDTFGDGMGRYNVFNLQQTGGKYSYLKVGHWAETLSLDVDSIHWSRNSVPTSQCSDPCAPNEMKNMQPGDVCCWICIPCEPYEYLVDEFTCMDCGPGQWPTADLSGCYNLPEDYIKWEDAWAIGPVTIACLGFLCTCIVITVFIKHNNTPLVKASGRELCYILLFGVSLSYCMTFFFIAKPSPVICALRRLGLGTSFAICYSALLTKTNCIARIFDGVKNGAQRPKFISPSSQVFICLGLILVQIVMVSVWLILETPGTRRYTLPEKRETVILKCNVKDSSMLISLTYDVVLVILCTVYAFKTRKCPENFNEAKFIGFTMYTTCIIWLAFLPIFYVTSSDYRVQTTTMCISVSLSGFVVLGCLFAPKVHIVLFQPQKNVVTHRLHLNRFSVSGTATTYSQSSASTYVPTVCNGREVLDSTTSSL
QUANTITY: Ki (nM)

{"ITEM_SMILES": "CO[C@@H]1C[C@@H]2[C@H]([C@]1(N)C(=O)O)[C@@]2(F)C(=O)O", "Ki, nM": 88.1}

A. N[C@]1(C(=O)O)[C@H]2[C@@H](C[C@H]1OCc1ccccc1)[C@]2(F)C(=O)O
B. N[C@]1(C(=O)O)[C@H]2[C@@H](C[C@H]1OCc1ccc(Cl)cc1)[C@]2(F)C(=O)O
C. N[C@@]1(C(=O)O)[C@H](O)C[C@@H]2[C@H]1[C@@]2(F)C(=O)O
INPUT: Ordering: ascending Ki. Lab note: record answer as labels in requested order.
OUTPUT: B, A, C

---

- TARGET_ENTITY: Metabotropic glutamate receptor 2 (Rattus norvegicus)
- Sequence (P31421 whole entry): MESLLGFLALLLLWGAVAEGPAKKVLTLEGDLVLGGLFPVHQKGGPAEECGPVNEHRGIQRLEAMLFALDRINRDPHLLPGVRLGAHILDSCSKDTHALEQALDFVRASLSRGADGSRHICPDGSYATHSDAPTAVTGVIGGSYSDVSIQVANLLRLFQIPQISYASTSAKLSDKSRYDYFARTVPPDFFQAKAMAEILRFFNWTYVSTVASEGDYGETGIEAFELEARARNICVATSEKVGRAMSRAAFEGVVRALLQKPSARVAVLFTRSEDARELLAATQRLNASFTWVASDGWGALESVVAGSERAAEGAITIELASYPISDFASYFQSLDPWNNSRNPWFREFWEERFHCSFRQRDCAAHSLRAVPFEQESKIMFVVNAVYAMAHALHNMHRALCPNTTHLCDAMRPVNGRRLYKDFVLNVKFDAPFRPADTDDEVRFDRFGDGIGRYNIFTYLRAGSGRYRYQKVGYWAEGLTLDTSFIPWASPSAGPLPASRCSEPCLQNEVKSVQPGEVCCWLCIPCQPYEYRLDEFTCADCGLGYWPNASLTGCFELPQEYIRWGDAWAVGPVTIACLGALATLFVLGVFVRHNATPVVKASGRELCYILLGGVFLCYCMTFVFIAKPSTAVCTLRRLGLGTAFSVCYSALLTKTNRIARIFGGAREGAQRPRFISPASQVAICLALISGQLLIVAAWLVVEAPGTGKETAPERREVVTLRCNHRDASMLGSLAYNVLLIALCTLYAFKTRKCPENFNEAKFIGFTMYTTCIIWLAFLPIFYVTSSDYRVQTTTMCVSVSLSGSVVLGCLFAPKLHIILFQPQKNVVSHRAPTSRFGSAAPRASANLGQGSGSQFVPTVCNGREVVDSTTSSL
- ASSAY_OVERVIEW: Concentration required to inhibit metabotropic glutamate receptor 2 activity of rat expressed in CHO cells
QUANTITY: IC50 (nM)

{"ITEM_SMILES": "N[C@]1(C(=O)O)[C@H]2[C@@H](C[C@H]1OC(c1ccccc1)c1ccccc1)[C@]2(F)C(=O)O", "TARGET_ENTITY": "Metabotropic glutamate receptor 2 (Rattus norvegicus)", "IC50, nM": 24.4}

a. N[C@]1(C(=O)O)[C@H]2[C@@H](C[C@H]1OCc1ccc3ccccc3c1)[C@]2(F)C(=O)O
b. N[C@]1(C(=O)O)[C@H]2[C@@H](C[C@H]1OCc1ccccc1)[C@]2(F)C(=O)O
c. N[C@]1(C(=O)O)[C@H]2[C@@H](C[C@H]1OCc1ccc(F)c(F)c1)[C@]2(F)C(=O)O
INPUT: Put the entries in order of IC50, starting with the largest number. Lab note: record answer as labels in requested order.
OUTPUT: b, c, a
(b: 131 nM, c: 40.8 nM, a: 22.7 nM)

---

- ASSAY_OVERVIEW: Maximum time required to achieve peak plasma concentration in rat brain upon oral dose of 10 mg/kg
- Assay type: ADME, organism-based
- Set-up: dose 10 mg/kg, route oral
QUANTITY: Tmax (h)

A. N[C@]1(C(=O)O)[C@H]2[C@@H](C[C@H]1OC(c1ccccc1)c1ccccc1)[C@]2(F)C(=O)O
B. N[C@]1(C(=O)O)[C@H]2[C@@H](C[C@H]1OCc1ccc(Cl)cc1)[C@]2(F)C(=O)O
INPUT: Name the one with the greater Tmax value, either A or B as given. I would appreciate it if you answered with the label of your choice.
OUTPUT: A
(A: 6 h, B: 3 h)

1. N[C@]1(C(=O)O)[C@H]2[C@@H](C[C@H]1OCc1ccc(Cl)c(Cl)c1)[C@]2(F)C(=O)O
2. N[C@]1(C(=O)O)[C@H]2[C@@H](C[C@H]1OCc1ccc(F)c(F)c1)[C@]2(F)C(=O)O
INPUT: Name the one with the greater Tmax value, either 1 or 2 as given. I would appreciate it if you answered with the label of your choice.
OUTPUT: 1

---

- TARGET_ENTITY: Metabotropic glutamate receptor 5 (Rattus norvegicus)
- ASSAY_OVERVIEW: Effective concentration for agonistic activity towards metabotropic glutamate receptor 5 of rat expressed in CHO cells
pEC50: −log10 of the molar value.
In this section, each of the compounds is paired with its reported pEC50.

{"ITEM_SMILES": "N[C@](CC1c2ccccc2Oc2ccccc21)(C(=O)O)[C@H]1C[C@@H]1C(=O)O", "pEC50": "< 4.00"}

With those in mind, consider the next compound.
INPUT: Print Metabotropic glutamate receptor 5 (Rattus norvegicus) pEC50 for N[C@]1(C(=O)O)[C@H]2[C@@H](C[C@H]1OCc1ccc(Cl)c(Cl)c1)[C@]2(F)C(=O)O .
OUTPUT: < 4.00

---

- ASSAY_OVERVIEW: Concentration of compound in brain of rat after 3h of oral dose 10 mg/kg
- Format: ADME, organism-based
- Set-up: dose 10 mg/kg, route oral
QUANTITY: concentration at 3 h (ng/mL)

A. N[C@]1(C(=O)O)[C@H]2[C@@H](C[C@H]1OCc1ccc(Cl)c(Cl)c1)[C@]2(F)C(=O)O
B. N[C@]1(C(=O)O)[C@H]2[C@@H](C[C@H]1OCc1ccc(F)c(F)c1)[C@]2(F)C(=O)O
INPUT: Name the one with the greater concentration at 3 h value, either A or B as given. I would appreciate it if you answered with the label of your choice.
OUTPUT: A
(A: 8.02 ng/mL, B: 3.11 ng/mL)

---

- TARGET_ENTITY: Metabotropic glutamate receptor 5 (Rattus norvegicus, UniProt P31424)
- Sequence (P31424 whole entry): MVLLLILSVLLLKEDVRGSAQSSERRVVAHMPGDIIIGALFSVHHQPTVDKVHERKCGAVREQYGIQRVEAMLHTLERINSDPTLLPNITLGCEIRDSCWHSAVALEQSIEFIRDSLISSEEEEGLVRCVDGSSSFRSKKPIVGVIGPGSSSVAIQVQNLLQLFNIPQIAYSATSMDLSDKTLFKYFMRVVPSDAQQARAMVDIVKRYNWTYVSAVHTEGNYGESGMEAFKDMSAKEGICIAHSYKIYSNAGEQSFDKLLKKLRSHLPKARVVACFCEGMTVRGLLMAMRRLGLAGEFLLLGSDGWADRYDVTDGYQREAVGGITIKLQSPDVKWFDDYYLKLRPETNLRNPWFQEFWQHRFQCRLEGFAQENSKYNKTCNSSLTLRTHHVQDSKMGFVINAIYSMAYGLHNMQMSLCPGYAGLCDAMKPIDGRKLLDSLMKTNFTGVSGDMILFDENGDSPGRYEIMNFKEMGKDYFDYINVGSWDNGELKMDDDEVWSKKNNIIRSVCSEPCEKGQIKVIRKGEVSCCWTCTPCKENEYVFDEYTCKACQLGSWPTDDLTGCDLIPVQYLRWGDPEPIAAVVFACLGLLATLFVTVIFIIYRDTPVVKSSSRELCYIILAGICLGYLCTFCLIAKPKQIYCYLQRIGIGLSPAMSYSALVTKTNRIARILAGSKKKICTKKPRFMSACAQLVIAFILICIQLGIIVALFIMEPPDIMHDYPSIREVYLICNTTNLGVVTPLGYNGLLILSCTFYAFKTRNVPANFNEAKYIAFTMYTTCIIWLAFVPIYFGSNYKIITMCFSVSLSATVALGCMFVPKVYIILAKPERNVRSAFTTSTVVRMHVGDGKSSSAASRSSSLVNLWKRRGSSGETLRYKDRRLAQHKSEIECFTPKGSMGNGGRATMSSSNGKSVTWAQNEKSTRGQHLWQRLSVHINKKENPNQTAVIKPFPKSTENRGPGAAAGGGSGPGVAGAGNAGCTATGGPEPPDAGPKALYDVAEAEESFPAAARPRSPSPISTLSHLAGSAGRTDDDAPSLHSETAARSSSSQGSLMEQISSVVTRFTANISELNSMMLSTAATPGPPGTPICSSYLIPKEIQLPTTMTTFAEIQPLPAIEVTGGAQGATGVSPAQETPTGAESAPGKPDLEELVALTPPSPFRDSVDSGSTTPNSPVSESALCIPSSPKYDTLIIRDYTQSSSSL
- ASSAY_OVERVIEW: Concentration required to inhibit metabotropic glutamate receptor 5 activity of rat expressed in CHO cells
QUANTITY: pIC50
pIC50 here is simply -log10 of the concentration when that concentration is written in mol/L.

{"ITEM_SMILES": "N[C@]1(C(=O)O)[C@H]2[C@@H](C[C@H]1OCc1ccc(Cl)c(Cl)c1)[C@]2(F)C(=O)O", "TARGET_ENTITY": "Metabotropic glutamate receptor 5 (Rattus norvegicus, UniProt P31424)", "pIC50": 3.93}

INPUT: Please report the measured pIC50 for N[C@](CC1c2ccccc2Oc2ccccc21)(C(=O)O)[C@H]1C[C@@H]1C(=O)O
OUTPUT: 4.94

---

- TARGET_ENTITY: Metabotropic glutamate receptor 3 (Rattus norvegicus)
- ASSAY_OVERVIEW: Effective concentration for agonistic activity towards metabotropic glutamate receptor 3 of rat expressed in CHO cells
QUANTITY: EC50

INPUT: Please report the measured EC50 for N[C@]1(C(=O)O)[C@H]2[C@@H](C[C@H]1OCc1ccc(Cl)c(Cl)c1)[C@]2(F)C(=O)O
OUTPUT: > 100 µM

---

- ASSAY_OVERVIEW: Half-life in rat brain upon oral dose of 10 mg/kg
- Assay type: ADME, organism-based
- Design: dose 10 mg/kg, route oral
QUANTITY: half-life (h)

{"ITEM_SMILES": "N[C@]1(C(=O)O)[C@H]2[C@@H](C[C@H]1OC(c1ccccc1)c1ccccc1)[C@]2(F)C(=O)O", "half-life [h]": 9}

P. N[C@]1(C(=O)O)[C@H]2[C@@H](C[C@H]1OCc1ccc3ccccc3c1)[C@]2(F)C(=O)O
Q. N[C@]1(C(=O)O)[C@H]2[C@@H](C[C@H]1OCc1ccc(Cl)c(Cl)c1)[C@]2(F)C(=O)O
R. N[C@]1(C(=O)O)[C@H]2[C@@H](C[C@H]1OCc1ccc(F)c(F)c1)[C@]2(F)C(=O)O
INPUT: Ordering: ascending half-life. Lab note: record answer as labels in requested order.
OUTPUT: P, Q, R
(P: 7.1 h, Q: 10.9 h, R: 19.5 h)

---

- ASSAY_OVERVIEW: Maximum time required to achieve peak plasma concentration upon oral dose of 3 mg/kg to rats
- Type: ADME, organism-based
- Parameters: dose 3 mg/kg, route oral
- TEST_CONTEXT: rat
QUANTITY: Tmax (h)

{"ITEM_SMILES": "N[C@]1(C(=O)O)[C@H]2[C@@H](C[C@H]1OCc1ccc3ccccc3c1)[C@]2(F)C(=O)O", "READOUT_UNITS": "h", "Tmax": 4}
{"ITEM_SMILES": "N[C@]1(C(=O)O)[C@H]2[C@@H](C[C@H]1OCc1ccc(F)c(F)c1)[C@]2(F)C(=O)O", "READOUT_UNITS": "h", "Tmax": 1.3}

A. N[C@]1(C(=O)O)[C@H]2[C@@H](C[C@H]1OCc1ccc(Cl)cc1)[C@]2(F)C(=O)O
B. N[C@]1(C(=O)O)[C@H]2[C@@H](C[C@H]1OCc1ccc(Cl)c(Cl)c1)[C@]2(F)C(=O)O
C. N[C@]1(C(=O)O)[C@H]2[C@@H](C[C@H]1OC(c1ccccc1)c1ccccc1)[C@]2(F)C(=O)O
INPUT: Ordering: ascending Tmax. Lab note: record answer as labels in requested order.
OUTPUT: C, A, B
